This collection of values is drawn from paper PMC6713233.

A collection of compounds and their measured efficacy (%), Fluorescence, +Human MS
Biological target: recombinant human AChE (Homo sapiens)
Type: biochemical

compound | study-system | value-observed
CCOP(=S)(Oc1cnc(C(C)(C)C)nc1)OC(C)C (centres unmarked) [Tebupirimfos] | recombinant human AChE (Homo sapiens) | 48.81±5.61 (−70.67±3.28) %
CCOP(=S)(OCC)Oc1cc(C)nc(C(C)C)n1 [Diazinon] | recombinant human AChE (Homo sapiens) | 113.22±7.66 (−71.22±6.26) %
CCOP(=S)(OCC)Oc1ccc2c(C)c(Cl)c(=O)oc2c1 [Coumaphos] | recombinant human AChE (Homo sapiens) | 12.95±1.05 (−67.18±4.87) %
CCOP(=S)(OCC)OC(Cl)C(Cl)(Cl)Cl (centres unmarked) [Chlorethoxyfos] | recombinant human AChE (Homo sapiens) | 31.57±8.80 (−99.07±7.79) %

Proceeding to the next compound to report its efficacy (%), Fluorescence, +Human MS.
QUERY: Under recombinant human AChE (Homo sapiens): efficacy (%), Fluorescence, +Human MS value of CCOP(=S)(OCC)Oc1nc(Cl)c(Cl)cc1Cl [Chlorpyrifos] ?
RESULT: 1.22±0.00 (−102.89±2.97) %

---

Molecular target: recombinant human AChE (Homo sapiens, UniProt P22303)
Sequence (P22303 32-614): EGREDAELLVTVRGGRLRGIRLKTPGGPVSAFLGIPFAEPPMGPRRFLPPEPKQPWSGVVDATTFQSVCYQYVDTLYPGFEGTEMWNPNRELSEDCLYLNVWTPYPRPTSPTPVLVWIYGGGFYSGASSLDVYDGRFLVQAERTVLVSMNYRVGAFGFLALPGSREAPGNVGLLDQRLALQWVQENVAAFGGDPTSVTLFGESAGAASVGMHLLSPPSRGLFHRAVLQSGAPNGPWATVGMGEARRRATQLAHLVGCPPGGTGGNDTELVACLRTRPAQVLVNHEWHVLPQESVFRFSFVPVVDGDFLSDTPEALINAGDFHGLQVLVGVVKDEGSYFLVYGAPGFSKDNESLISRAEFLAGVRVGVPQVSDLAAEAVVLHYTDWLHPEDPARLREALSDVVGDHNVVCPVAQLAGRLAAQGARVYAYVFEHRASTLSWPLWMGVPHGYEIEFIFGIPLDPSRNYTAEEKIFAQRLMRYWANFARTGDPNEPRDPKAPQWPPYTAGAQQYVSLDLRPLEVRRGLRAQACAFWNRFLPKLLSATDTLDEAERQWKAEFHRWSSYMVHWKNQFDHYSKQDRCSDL
Assay: biochemical
Type: biochemical
Settings: read-out: efficacy (%), Colorimetric
measure: Emax (%)
Give the number; % is assumed, so skip it.

Some compounds with recorded Emax:
compound | Emax [%]
CCOP(=S)(OCC)Oc1cc(C)nc(C(C)C)n1 | 102
CCOC(=O)CC(SP(=O)(OC)OC)C(=O)OCC (stereo not drawn) | 91.1
COP(=O)(OC)OC=C(Cl)Cl | 34.9
COP(=O)(OC)OC(Br)C(Cl)(Cl)Br (stereo not drawn) | 46.5
CCCSP(=O)(OCC)SCCC | 43.4

QUERY: Any idea what its Emax is? The compound is CCCSP(=O)(OCC)Oc1ccc(Br)cc1Cl (stereo not drawn)
RESULT: 83.2

QUERY: Can you check COP(N)(=O)SC (stereo not drawn) next?
RESULT: 38.7

QUERY: Can you check CCOP(=S)(OCC)OC(Cl)C(Cl)(Cl)Cl (stereo not drawn) next?
RESULT: 46.3

QUERY: Can you check CCOP(=O)(OCC)Oc1cc(C)nc(C(C)C)n1 next?
RESULT: 95.2

QUERY: Can you check COP(=O)(OC)C(O)C(Cl)(Cl)Cl (stereo not drawn) next?
RESULT: 30

QUERY: Can you check CCOP(=S)(Oc1cnc(C(C)(C)C)nc1)OC(C)C (stereo not drawn) next?
RESULT: 53

QUERY: Can you check COP(=O)(OC)O/C(C)=C/C(=O)N(C)C next?
RESULT: 32.5

---

Target: recombinant human AChE (Homo sapiens)
Assay: biochemical
Assay type: biochemical
Conditions: read-out: efficacy (%), Fluorescence
Hi! Could you tag entries with Emax below 80% as 1, and those at or above as -1? Much appreciated.

Examples from the recorded data:
molecule | group-label
COP(=O)(OC)OC=C(Cl)Cl | 1
CCCCSP(=O)(SCCCC)SCCCC | 1
CCOP(=S)(OCC)Oc1nc(Cl)c(Cl)cc1Cl | -1

QUERY: Hi there! Is Emax for COP(=O)(OC)C(O)C(Cl)(Cl)Cl (stereo not drawn) below 80%, do you know?
RESULT: -1

QUERY: Can you check COP(N)(=O)SC (stereo not drawn) next?
RESULT: -1

QUERY: Can you check CCOP(=S)(OCC)Oc1ccc2c(C)c(Cl)c(=O)oc2c1 next?
RESULT: -1

QUERY: Can you check CCOP(=S)(OCC)SCSCC [Phorate] next?
RESULT: 1

QUERY: Can you check CCOP(=S)(OCC)Oc1cc(C)nc(C(C)C)n1 next?
RESULT: -1

---

Molecular target: recombinant human AChE (Homo sapiens)
Assay: biochemical
Type: biochemical
measure: pIC50
FYI, pIC50 means -log10 of a concentration in mol per litre.

QUERY: Any idea what its pIC50 is? The molecule is CCN(CC)c1nc(C)cc(OP(=S)(OC)OC)n1
RESULT: 4.38

---

Target: recombinant human AChE (Homo sapiens)
Assay: biochemical
Format: biochemical
measure: pIC50
FYI, pIC50 means -log10 of a concentration in mol per litre.

QUERY: Any idea what its pIC50 is? The molecule is CNC(=O)CSP(=O)(OC)OC [Omethoate]
RESULT: 4.16

---

A collection of compounds and their measured Emax
Biological target: recombinant human AChE (Homo sapiens, UniProt P22303)
Assay: biochemical
Type: biochemical
Settings: read-out: efficacy (%), Fluorescence, +Rat MS
Give the number; % is assumed, so skip it.

Some compounds with recorded Emax:
compound | unit | Emax
COP(=S)(OC)SCN1C(=O)c2ccccc2C1=O | % | 43.5
CCOP(=S)(OCC)SCSC(C)(C)C | % | 85.3
CCOP(=S)(OCC)SCSCC [Phorate] | % | 72

Proceeding to the next compound to report its Emax.
QUERY: Any idea what its Emax is? The compound is CCOP(=S)(OCC)OC(Cl)C(Cl)(Cl)Cl (stereo not shown)
RESULT: 100

---

Target: recombinant human AChE (Homo sapiens, UniProt P22303)
Assay: biochemical
Format: biochemical
Settings: read-out: efficacy (%), Fluorescence
Quick rule: Emax of at least 80% means true, below that means false.

Examples from the recorded data:
molecule | group-label
COP(=S)(OC)SCN1C(=O)c2ccccc2C1=O | false
COP(=O)(OC)O/C(=C\Cl)c1cc(Cl)c(Cl)cc1Cl | false
CCOC(=O)CC(SP(=S)(OC)OC)C(=O)OCC (stereo not shown) | false
CCOP(=S)(Oc1cnc(C(C)(C)C)nc1)OC(C)C (stereo not shown) | true

Here is the next item to consider.
QUERY: Assess whether reported Emax for CNC(=O)CSP(=O)(OC)OC [Omethoate] sits at 80% or higher.
RESULT: false

---

Molecular target: recombinant human AChE (Homo sapiens, UniProt P22303)
Experiment: biochemical
Format: biochemical
Conditions: read-out: efficacy (%), Fluorescence
measure: Emax (%)
Give the number; % is assumed, so skip it.

molecule | value-observed
CCOP(=O)(OCC)Oc1cc(C)nc(C(C)C)n1 | 77.7
CCOP(=S)(OCC)OC(Cl)C(Cl)(Cl)Cl (centres unmarked) | 99.2
CCCSP(=O)(OCC)Oc1ccc(Br)cc1Cl (centres unmarked) | 93.7
COP(=O)(OC)O/C(C)=C/C(=O)N(C)C | 82.7

Proceeding to the next molecule to report its Emax.
QUERY: Any idea what its Emax is? The molecule is CCOC(=O)CC(SP(=O)(OC)OC)C(=O)OCC (centres unmarked)
RESULT: 95.2
